The reported measurements were obtained from patent US11142524B2.

biological target: Recombinant Human ENPP-1 Protein (purified in-house) (Homo sapiens (Human)); assay: ENPP1 Assay (TMP), Example 2; type: biochemical; settings: Table 5, TMP substrate; read-out: ENPP1 (IC50 μM) TMP
Sequence (P22413 whole entry, looked up): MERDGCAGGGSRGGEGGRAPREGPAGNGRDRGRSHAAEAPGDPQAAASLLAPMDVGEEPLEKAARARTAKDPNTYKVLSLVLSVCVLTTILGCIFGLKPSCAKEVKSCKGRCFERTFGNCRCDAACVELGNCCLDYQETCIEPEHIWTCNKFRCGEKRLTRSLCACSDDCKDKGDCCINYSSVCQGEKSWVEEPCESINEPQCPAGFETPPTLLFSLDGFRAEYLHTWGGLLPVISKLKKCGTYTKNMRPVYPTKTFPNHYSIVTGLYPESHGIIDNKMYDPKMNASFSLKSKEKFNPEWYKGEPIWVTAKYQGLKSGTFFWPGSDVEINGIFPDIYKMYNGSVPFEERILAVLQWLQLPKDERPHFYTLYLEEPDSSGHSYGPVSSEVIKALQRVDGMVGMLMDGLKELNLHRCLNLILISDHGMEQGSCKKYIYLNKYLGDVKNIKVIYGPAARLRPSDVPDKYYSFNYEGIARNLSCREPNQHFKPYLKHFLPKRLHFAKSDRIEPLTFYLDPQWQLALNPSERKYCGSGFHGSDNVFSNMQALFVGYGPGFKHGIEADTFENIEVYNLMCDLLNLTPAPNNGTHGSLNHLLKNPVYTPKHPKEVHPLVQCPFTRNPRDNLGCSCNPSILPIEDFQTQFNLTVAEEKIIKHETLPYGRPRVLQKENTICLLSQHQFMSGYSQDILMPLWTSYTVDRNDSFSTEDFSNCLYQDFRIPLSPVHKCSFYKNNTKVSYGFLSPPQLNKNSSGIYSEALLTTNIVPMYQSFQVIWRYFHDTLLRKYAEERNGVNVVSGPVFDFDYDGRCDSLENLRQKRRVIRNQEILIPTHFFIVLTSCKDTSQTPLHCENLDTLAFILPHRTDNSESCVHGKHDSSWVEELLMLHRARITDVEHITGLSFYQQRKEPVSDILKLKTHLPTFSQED
Counter-ions that a name gives are not always drawn.
Measured IC50, listed per entry for reference.
Express your answer in µM, writing the number without its unit.

Some solved entries appear below for comparison.
{"columns": ["COMPOUND", "IC50 (µM)"],
 "data": [
  ["Cc1c(C#N)ncc2[nH]c(SCC(=O)Nc3ccc(F)c(S(N)(=O)=O)c3)nc12", 2.85],
  ["COc1ccc(NC(=O)CSc2nc3c(C)c(C#N)ncc3[nH]2)cc1O[C@H]1CC[C@H](N)CC1 [Compound 113, Hydrochloride]", 22.2],
  ["COc1ccc(NC(=O)CSc2nc3c(C)c(C#N)ncc3[nH]2)cc1O", 0.271],
  ["COc1ccc(NC(=O)c2cnc(CSc3nc4c(C)c(C#N)ncc4[nH]3)s2)cc1O", 1.61],
  ["COc1cc(NC(=O)CSc2nc3c(C)c(C#N)ncc3[nH]2)ccc1OP(=O)([O-])[O-].[Na+].[Na+] [Compound 108, phosphate]", 2.04],
  ["COc1ccc(NC(=O)CSc2nc3c(C)c(C#N)ncc3[nH]2)cc1OCCO", 3.61],
  ["COc1ccc(NC(=O)CSc2nc3c(C)c(C#N)ncc3[nH]2)cc1OCC1CCN(C)CC1 [Compound 111, hydrochloride]", 22.3]
]}

// next item, IC50 requested
stdin: Name the recorded IC50 for `COc1ccc(NC(=O)CSc2nc3c(C)c(C#N)ncc3[nH]2)cc1OP(=O)(O)O` .
stdout: 0.742

----------
Biological target: Recombinant Human ENPP-1 Protein (purified in-house) (Homo sapiens (Human))
Experiment: ENPP1 Assay (ATP), Example 2
Assay type: biochemical
Conditions: FIG. 5B, ATP substrate; read-out: IC50
Experimental: Assay Buffer: 1 mM CaCl2, 0.2 mM ZnCl2, 50 mM Tris, pH 9.0. Substrate: 100 μM Adenosine 5′-triphosphate disodium salt hydrate (Promega: V703A)—Assay Conc.: 10 μM. […] A ten point serial dilution of drugs was prepared in 10× in assay buffer with the final assay concentrations starting at 10 μM, 3 μM, 1 μM, 0.3 μM . . . […] The reaction was quantified by measuring luminescence using the Envision Plate Reader.
Reported IC50 values for a set of molecules
Report as a plain number; the unit nM is understood.

Examples from the recorded data:
{"columns": ["MOLECULE", "SYSTEM_TESTED", "UNIT_OF_MEASURE", "IC50"],
 "data": [
  ["COc1cc(NC(=O)CSc2nc3c(C)c(C#N)ncc3[nH]2)ccc1OP(=O)([O-])[O-].[Na+].[Na+] [Compound 108, phosphate]", "Recombinant Human ENPP-1 Protein (purified in-house) (Homo sapiens (Human))", "nM", 339],
  ["COc1ccc(NC(=O)CSc2nc3c(C)c(C#N)ncc3[nH]2)cc1OP(=O)(O)O [Compound 107, phosphate]", "Recombinant Human ENPP-1 Protein (purified in-house) (Homo sapiens (Human))", "nM", 116],
  ["COc1ccc(NC(=O)c2cnc(CSc3nc4c(C)c(C#N)ncc4[nH]3)s2)cc1O [Compound 115]", "Recombinant Human ENPP-1 Protein (purified in-house) (Homo sapiens (Human))", "nM", 191]
]}

Below: the item to evaluate.
stdin: Value wanted: IC50 (Recombinant Human ENPP-1 Protein (purified in-house) (Homo sapiens (Human))) of entry COc1ccc(NC(=O)CSc2nc3c(C)c(C#N)ncc3[nH]2)cc1O [Compound 78]
stdout: 73.1
